TARGET UNDER TEST: native aSyn aggregates in A30P transgenic mouse brain sections (Homo sapiens, UniProt P37840, A30P)
Construct: from tissue; host or cells: brain sections (midbrain and pons as ROI) of A30P transgenic mice, line B6.D2-Tg(Thy1-SNCA*30P)31Pjk
ASSAY SUMMARY: aSyn in vitro displacement assay ([3H]Example-3 autoradiography)
Type: binding, mutant human aSyn gene)
RUN CONDITIONS: 1 μM compound; 3 nM [3H]Example-3; A30P transgenic mouse brain sections; read-out: PCT_INHIB A30P @ 1 μM (% displacement of [3H]Example-3)
MEASUREMENT TYPE: inhibition at 1 µM (%)

# MOL, inhibition at 1 µM [%]
records = [
    ("COc1ccc(C(=O)Nc2ccc(N3CCN(c4nccs4)CC3)cc2)cc1", 90),
    ("COc1cccc(C(=O)Nc2ccc(N3CCN(c4ccc(C#N)cc4)CC3)cc2)n1", 99),
    ("COc1ccc(C(=O)Nc2ccc(N3CCN(c4ccccn4)CC3)nc2)c(F)c1", 84),
    ("Cc1ccc(C(=O)Nc2cnc(N3CCN(c4ccccn4)CC3)cn2)nc1", 85),
    ("CN1CCN(c2ccc(C(=O)Nc3cnc(N4CCN(c5ccccn5)CC4)nc3)cc2)CC1", 88),
    ("O=C(Nc1ccc(N2CCN(c3cccnc3)CC2)cc1)c1ccc(N2CCOCC2)cc1", 87),
    ("COc1ccc(C(=O)Nc2ccc(N3CCN(c4ccc(C#N)cc4)CC3)cc2)nc1", 81),
    ("O=C(Nc1ccc(N2CCN(c3cccs3)CC2)cc1)c1ccc(N2CCOCC2)cc1", 81),
    ("COc1ccc(C(=O)Nc2ccc(N3CCN(c4ccccc4OC)CC3)cc2)cc1", 89),
    ("COc1ccc(C(=O)Nc2ccc(N3CCN(c4cc(Cl)c(C#N)cn4)CC3)cc2)cc1", 90),
    ("O=C(Nc1ccc(N2CCN(c3ccccn3)CC2)cn1)c1ccccc1F", 83),
    ("COc1ccc(C(=O)Nc2ccc(N3CCN(c4ccc(C#N)cc4C)CC3)cc2)cc1", 89),
    ("COc1ccc(C(=O)Nc2cnc(N3CCN(c4ccccn4)CC3)nc2)c(C)c1", 80),
    ("O=C(Nc1ccc(N2CCN(c3ccccn3)CC2)cc1)c1ccc2c(c1)OCCO2", 91),
    ("Cc1ccc(C(=O)Nc2ccc(N3CCN(c4ccccn4)CC3)cn2)c(F)c1", 92),
    ("COc1ccc(C(=O)Nc2ccc(N3CCN(c4cc(Cl)ccn4)CC3)cc2)cc1", 93),
    ("COc1ccc(C(=O)Nc2ccc(N3CCN(c4ccc(C#N)nc4)CC3)cc2)nc1", 83),
    ("Cc1ccc(C(=O)Nc2ccc(N3CCN(c4ccccn4)CC3)cc2)c(F)c1", 83),
    ("COc1ccc(C(=O)Nc2ccc(N3CCN(c4ccc(C#N)c(F)c4)CC3)cc2)cc1", 98),
    ("COc1ccc(C(=O)Nc2ccc(N3CCN(c4ccccn4)CC3)cn2)c(C)c1", 90),
    ("COc1ccc(C(=O)Nc2ccc(N3CCN(c4ccccn4)CC3)cc2)c(C)c1", 87),
    ("Cc1cccc(C(=O)Nc2cnc(N3CCN(c4ccccn4)CC3)nc2)c1", 88),
    ("COc1ccc(C(=O)Nc2ccc(N3CCN(c4cccc(OC)n4)CC3)cc2)cc1", 96),
    ("COc1ccc(C(=O)Nc2ccc(N3CCN(c4ccccn4)CC3)cc2)nc1", 98),
    ("COc1ccc(C(=O)Nc2ccc(N3CCN(c4cccc(F)n4)CC3)cc2)cc1", 95),
    ("Cc1ccc(C(=O)Nc2ccc(N3CCN(c4ccccn4)CC3)nc2)nc1", 85),
    ("Cc1ccc(C(=O)Nc2cnc(N3CCN(c4ccccn4)CC3)nc2)nc1", 95),
    ("O=C(Nc1ccc(N2CCN(c3ccccn3)CC2)cc1)c1ccc(OCF)cc1", 97),
    ("N#Cc1ccc(N2CCN(c3ccc(NC(=O)c4ccc(O)cc4)cc3)CC2)nc1", 81),
    ("COc1ccc(C(=O)Nc2ccc(N3CCN(c4ccc(C)cc4)CC3)cc2)cc1", 96),
    ("CN(C)c1ccc(C(=O)Nc2cnc(N3CCN(c4ccccn4)CC3)nc2)cc1", 89),
    ("CN(C)c1ccc(C(=O)Nc2ccc(N3CCN(c4ccccn4)CC3)cn2)cc1", 94),
    ("COC(=O)c1ccc(N2CCN(c3ccc(NC(=O)c4ccc(OC)cc4)cc3)CC2)nc1", 93),
    ("COc1ccc(C(=O)Nc2ccc(N3CCN(c4ncc(C#N)cn4)CC3)cc2)cc1", 91),
    ("CN(C)c1ccc(C(=O)Nc2ccc(N3CCN(c4nccs4)CC3)cc2)cc1", 90),
]

---

TARGET UNDER TEST: native Aβ aggregates in human AD brain tissue sections (Homo sapiens)
Construct: native Aβ aggregates in human AD brain tissue samples; from tissue; host or cells: human AD brain tissue sections
ASSAY SUMMARY: Aβ in vitro displacement assay (selectivity counterscreen, [3H]Example 3 autoradiography)
Format: binding
RUN CONDITIONS: 1 μM compound; 3 nM [3H]Example 3; human AD brain sections; read-out: sel. counterscreen PCT_INHIB AD @ 1 μM (% displacement of [3H]Example 3)
MEASUREMENT TYPE: inhibition at 1 µM (%)

# MOLECULE, ASSAY VALUE
rows = [
    ("COc1ccc(C(=O)Nc2ccc(N3CCN(c4cccnc4)CC3)cc2)nc1 [Example 77]", 96),
    ("O=C(Nc1ccc(N2CCN(c3ccccn3)CC2)cn1)c1ccccc1F [Example 47]", 94),
    ("O=C(Nc1ccc(N2CCN(c3ccccn3)CC2)cc1)c1ccn2ccnc2c1 [Example 16]", 97),
    ("CN(C)c1ccc(C(=O)Nc2ccc(N3CCN(c4ccccn4)CC3)cc2)cc1 [Example 7]", 108),
    ("COc1ccc(C(=O)Nc2ccc(N3CCN(c4ccc(C#N)cc4)CC3)cc2)c(C)c1 [Example 168]", 96),
]

---

TARGET UNDER TEST: native Aβ aggregates in human AD brain tissue sections (Homo sapiens, UniProt P05067)
Construct: native Aβ aggregates in human AD brain tissue samples; from tissue; host or cells: human AD brain tissue sections
Sequence (P05067 672-713 limits assumed): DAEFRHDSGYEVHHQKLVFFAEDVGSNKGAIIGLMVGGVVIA
ASSAY SUMMARY: Aβ in vitro displacement assay (selectivity counterscreen, [3H]Example 3 autoradiography)
Format: binding
RUN CONDITIONS: 1 μM compound; 3 nM [3H]Example 3; human AD brain sections; read-out: sel. counterscreen PCT_INHIB AD @ 1 μM (% displacement of [3H]Example 3)
MEASUREMENT TYPE: inhibition at 1 µM (%)

# MOL, inhibition at 1 µM (%)
data = [
    ("COc1ccc(C(=O)Nc2ccc(N3CCN(c4ccccn4)CC3)c(F)c2)cc1", 88),
    ("N#Cc1ccc(N2CCN(c3ccc(NC(=O)c4ccc(O)cc4)cc3)CC2)nc1", 92),
    ("COc1ccc(C(=O)Nc2ccc(N3CCN(c4ccc(C#N)cc4)CC3)cc2)c(F)c1", 92),
    ("N#Cc1ccc(N2CCN(c3ccc(NC(=O)c4ccc(OCF)cc4)cc3)CC2)nc1", 92),
    ("COc1ccc(C(=O)Nc2ccc(N3CCN(c4ccc(C#N)cc4)CC3)cc2)cc1F", 92),
    ("N#Cc1ccc(N2CCN(c3ccc(NC(=O)c4ccncn4)cc3)CC2)cc1", 90),
    ("COc1ccc(C(=O)Nc2ccc(N3CCN(c4ccc(OC)nc4)CC3)cc2)cc1", 92),
    ("O=C(Nc1ccc(N2CCN(c3ccccn3)CC2)nc1)c1ccc(N2CCOCC2)cc1", 88),
    ("COc1ccc(C(=O)Nc2ccc(N3CCN(c4ccc(C#N)cc4C)CC3)cc2)cc1", 92),
    ("Cc1ccc(C(=O)Nc2ccc(N3CCN(c4ccccn4)CC3)nc2)nc1", 90),
    ("COc1ccc(C(=O)Nc2ccc(N3CCN(c4ncccc4F)CC3)cc2)cc1", 89),
    ("COc1ccc(C(=O)Nc2ccc(N3CCN(c4ccc(C#N)cn4)CC3)cc2)cn1", 92),
    ("COc1ccc(C(=O)Nc2ccc(N3CCN(c4ccc(C)cn4)CC3)cc2)cn1", 91),
]

---

TARGET UNDER TEST: native aSyn aggregates in A30P transgenic mouse brain sections (Homo sapiens, UniProt P37840, A30P)
Construct: from tissue; host or cells: brain sections (midbrain and pons as ROI) of A30P transgenic mice, line B6.D2-Tg(Thy1-SNCA*30P)31Pjk
ASSAY SUMMARY: aSyn in vitro displacement assay ([3H]Example-3 autoradiography)
Format: binding, mutant human aSyn gene)
RUN CONDITIONS: 1 μM compound; 3 nM [3H]Example-3; A30P transgenic mouse brain sections; read-out: PCT_INHIB A30P @ 1 μM (% displacement of [3H]Example-3)
MEASUREMENT TYPE: inhibition at 1 µM (%)

# MOL, UNIT ABBREVIATION, inhibition at 1 µM
rows = [
    ("COc1ccc(C(=O)Nc2ccc(N3CCN(c4ccc(C#N)cc4)CC3)cc2)c(F)c1", "%", 91),
    ("COc1ccc(C(=O)Nc2ccc(N3CCN(c4ccc(N(C)C)cn4)CC3)cc2)cc1", "%", 91),
    ("COc1ccc(C(=O)Nc2ccc(N3CCN(c4ncccn4)CC3)cc2)cc1", "%", 92),
    ("COc1ccc(C(=O)Nc2ccc(N3CCN(c4ccc(C#N)c(C)c4)CC3)cc2)cc1", "%", 92),
    ("COc1ccc(C(=O)Nc2ccc(N3CCN(c4ccc(C#N)cn4)CC3)cc2)cc1OC", "%", 88),
    ("CN1CCN(c2ccc(C(=O)Nc3cnc(N4CCN(c5ccccn5)CC4)cn3)cc2)CC1", "%", 88),
    ("COc1ccc(C(=O)Nc2ccc(N3CCN(c4cc(C)ccn4)CC3)cc2)cc1", "%", 89),
]

Reference for the values: patent US11541132B2
